# System: Mycobacterium avium
# condition.parameters: 104
property.measured: MIC

Look up MIC for the entries below, preserving their order.
1. CCCOc1ccc(-c2cn(CCN(CC)CC)c3ccccc3c2=O)cc1
2. CN(C)CCCN1c2ccccc2Sc2ccc(Cl)cc21
3. CCCOc1ccc(-c2cn(CCN3CCCCC3)c3ccccc3c2=O)cc1
4. CSc1ccc2c(c1)N(CCC1CCCCN1C)c1ccccc1S2 (stereo not given)
5. CCCOc1ccc(-c2cn(CCN3CCCCCC3)c3ccccc3c2=O)cc1

["6.25 µg/mL", "6.25 µg/mL", "< 0.195 µg/mL", "12.5 µg/mL", "1.56 µg/mL"]
